Test system: SARS-CoV-2
Format: cell-based
Settings: combination with remdesivir
Counter-ions that a name gives are not always drawn.

Molecule | HeLa-ACE2 synergy score with remdesivi
CCN(CC)CCCNc1ccnc2cc(Cl)ccc12 | -1.765 δ
CC(C)Oc1ccc(-c2nc(-c3cccc4c3CC[C@@H]4NCCO)no2)cc1C#N | -4.622 δ
CCOC(=O)[C@@H]1O[C@H]1C(=O)N[C@@H](CC(C)C)C(=O)N1CCN(Cc2ccc(OC)c(OC)c2OC)CC1 | 0.209 δ
CCCCC1CCc2cc(O)cc3c(CCN4CCN(c5cc(C)ccn5)CC4)c(C)n1c23 (stereo not drawn) | -2.817 δ
CN(C)CC1=C[CH]([Fe][CH]2C=CC=C2)C=C1CNc1ccnc2cc(Cl)ccc12 (stereo not drawn) | -2.076 δ
CCCCN(CCCC)CCC(O)c1cc2c(Cl)cc(Cl)cc2c2cc(C(F)(F)F)ccc12 (stereo not drawn) [Halofantrine HCl] | -3.509 δ

Provenance of the data: paper PMC8175350
